System: 519858-162-T-J1-PDC complex spheroid viability;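 further: spheroids exposed to compounds for 7 days; 100% = DMSO vehicle control viability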
Assay: Anticancer human tumor 519858-162-T-J1-PDC patient-derived colon adenocarcinoma cell line growth inhibition [GQUAD]
Details: second compound 0.0316 µM; first compound 3.16 µM; active compounds read low
observable: viability, T/C (%)
Please state the figure in %; there is no need to write the unit.

Below, each entry is followed by its recorded viability, T/C result.
* C=CCn1c(=O)c2cnc(Nc3ccc(N4CCN(C)CC4)cc3)nc2n1-c1cccc(C(C)(C)O)n1 + Cc1cnc(CNC(=O)c2c(=O)c3ccc(N4CCCN(C)CC4)nc3n3c2sc2ccccc23)cn1 | 70.4
* COc1ncnc(C2CC2)c1-c1ncc2cnn(Cc3ccc(-c4nc(C(F)(F)F)cn4C(C)C)cc3)c2n1 + CN(C)c1ccc(Nc2c3ccc(NC(=O)CCN4CCCC4)cc3nc3cc(NC(=O)CCN4CCCC4)ccc23)cc1 | 99.6
* O=C(NO)c1cnc(N2CCN(S(=O)(=O)c3ccc4ccccc4c3)CC2)nc1 + Cc1[nH]c2ccc(F)cc2c1-c1nc2c3cccnc3c3ncccc3c2[nH]1 | 0.42

Consider the compound COc1ccc([C@@H](O)c2cc(-c3ncnc4cc(N5CCOCC5)ccc34)c(F)cc2Cl)nn1 + CN(C)c1ccc(Nc2c3ccc(NC(=O)CCN4CCCC4)cc3nc3cc(NC(=O)CCN4CCCC4)ccc23)cc1 and give its measured viability, T/C.
98

Using the record for CC1COCCN1c1cc(C2(O)CC3CCC(C2)O3)c2cnn(-c3ccn[nH]3)c2n1 (stereo not given) + CN(C)c1ccc(Nc2c3ccc(NC(=O)CCN4CCCC4)cc3nc3cc(NC(=O)CCN4CCCC4)ccc23)cc1 , report its viability, T/C.
114

# input compound: O=c1[nH]cc(F)c(=O)[nH]1 + Cc1[nH]c2ccc(F)cc2c1-c1nc2c3cccnc3c3ncccc3c2[nH]1 ; wanted: its viability, T/C
81.7

Consider the compound COc1cc(C2c3cc4c(cc3C(OC3OC5COC(C)OC5C(O)C3O)C3COC(=O)C23)OCO4)cc(OC)c1O (stereo not given) + Cc1cnc(CNC(=O)c2c(=O)c3ccc(N4CCCN(C)CC4)nc3n3c2sc2ccccc23)cn1 and give its measured viability, T/C.
59.7
